Assay: molar heat capacity at constant pressure
Conditions: 302.15 K; 101.33 kPa; Liquid; Small sample (50 mg) DSC
assay-metric: molar heat capacity at constant pressure (J/K/mol)
All answers are understood in J/K/mol, so give the number only.

INSERT INTO measurements (compound, assay_metric, unit_info, val) VALUES
  ('NCCCCN [1,4-butanediamine]', 'molar heat capacity at constant pressure', 'J/K/mol', 236.77);

molar heat capacity at constant pressure for NCCN [ethane-1,2-diamine] is 172.95

molar heat capacity at constant pressure for NCCCCCCCN [1,7-diaminoheptane] is 332.76

molar heat capacity at constant pressure for NCCCN [1,3-propanediamine] is 204.03

###

Assay: molar heat capacity at constant pressure
Details: 312.65 K; 101.33 kPa; Liquid; Small sample (50 mg) DSC
Hi! Just check whether molar heat capacity at constant pressure is below 300 J/K/mol. Below gives Yes, equal or above gives No.

These solved cases illustrate the format of a correct answer.
INSERT INTO assay_data (smiles_str, answer_label) VALUES
  ('NCCCCN', 'Yes'),
  ('NCCCCCCCN', 'No'),
  ('NCCCN', 'Yes'),
  ('NCCCCCCCCCN', 'No');

--- query ---
Request: Answer whether the molecule NCCN has molar heat capacity at constant pressure strictly less than 300 J/K/mol
Response: Yes

###

Assay: molar heat capacity at constant pressure
Settings: 321.65 K; 101.33 kPa; Liquid; Small sample (50 mg) DSC
Label 1 for high-side molar heat capacity at constant pressure (at or above 300 J/K/mol) and 0 for low-side molar heat capacity at constant pressure (below it).

These solved cases illustrate the format of a correct answer.
INSERT INTO assay_data (smiles_str, answer_label) VALUES
  ('NCCCCN', 0),
  ('NCCCCCCCCCN', 1),
  ('NCCCN', 0),
  ('NCCN', 0);

--- query ---
Request: Given NCCCCCCCN , state whether its molar heat capacity at constant pressure is at least 300 J/K/mol.
Response: 1

###

Experiment: molar heat capacity at constant pressure
Settings: 326.15 K; 101.33 kPa; Liquid; Small sample (50 mg) DSC
Form field: molar heat capacity at constant pressure (one value per entry).
All answers are understood in J/K/mol, so give the number only.

Known results for compounds:
INSERT INTO assay_data (smiles_str, assay_metric, val) VALUES
  ('NCCCCCCCCCN', 'molar heat capacity at constant pressure', 400.67),
  ('NCCCCCCCN', 'molar heat capacity at constant pressure', 336.12),
  ('NCCCN', 'molar heat capacity at constant pressure', 206.79),
  ('NCCCCN', 'molar heat capacity at constant pressure', 239.29),
  ('NCCN', 'molar heat capacity at constant pressure', 175);

The record that follows has no molar heat capacity at constant pressure shown yet.
molar heat capacity at constant pressure for NCCCCCCN is 302.53

###

Assay: molar heat capacity at constant pressure
Settings: 324.65 K; 101.33 kPa; Liquid; Small sample (50 mg) DSC
Hi! Just check whether molar heat capacity at constant pressure is below 200 J/K/mol. Below gives rule met, equal or above gives rule not met.

Request: Answer whether the molecule NCCCCCCCN has molar heat capacity at constant pressure strictly less than 200 J/K/mol
Response: rule not met

Request: Answer whether the molecule NCCCCCCCCCN has molar heat capacity at constant pressure strictly less than 200 J/K/mol
Response: rule not met

Request: Answer whether the molecule NCCCCCCN has molar heat capacity at constant pressure strictly less than 200 J/K/mol
Response: rule not met

Request: Answer whether the molecule NCCN has molar heat capacity at constant pressure strictly less than 200 J/K/mol
Response: rule met

Request: Answer whether the molecule NCCCN has molar heat capacity at constant pressure strictly less than 200 J/K/mol
Response: rule not met

Request: Answer whether the molecule NCCCCN has molar heat capacity at constant pressure strictly less than 200 J/K/mol
Response: rule not met

Measured values drawn from the NIST ThermoML archive (doi:10.1021/je900537y) for this set.
